tested on: NCI-H1703; test: Antiproliferative activity against human NCI-H1703 cells expressing FASN assessed as growth inhibition at 25 uM after 72 hrs by MTS assay relative to control; type: functional; settings: NCI-H1703, 72 h
Measured inhibition at 25 µM of individual entries

{"Test Smiles": "O=C(Oc1ccc(/C=C/c2cccc(OC(=O)c3ccc(O)c(O)c3)c2)cc1)c1ccc(O)c(O)c1", "inhibition at 25 µM": "> 50%"}
{"Test Smiles": "O=C(Oc1cccc(/C=C/c2ccccc2)c1)c1cc(O)c(O)c(O)c1", "inhibition at 25 µM": "< 50%"}
{"Test Smiles": "O=C(Oc1ccc(/C=C/c2cccc(OC(=O)c3cc(O)c(O)c(O)c3)c2)cc1)c1cc(O)c(O)c(O)c1", "inhibition at 25 µM": "> 50%"}
{"Test Smiles": "COc1cc(C(=O)Oc2ccc(Cc3ccc(OC(=O)c4cc(OC)c(OC)c(OC)c4)cc3)cc2)cc(OC)c1OC", "inhibition at 25 µM": "< 50%"}
{"Test Smiles": "O=C(Oc1ccccc1Cc1ccccc1OC(=O)c1cc(O)c(O)c(O)c1)c1cc(O)c(O)c(O)c1", "inhibition at 25 µM": "> 50%"}
{"Test Smiles": "COc1cc(C(=O)Oc2ccc(/C=C/c3cccc(OC(=O)c4cc(OC)c(OC)c(OC)c4)c3)cc2)cc(OC)c1OC", "inhibition at 25 µM": "< 50%"}
{"Test Smiles": "O=C(Oc1ccc(-c2cccc3ccccc23)cc1)c1cc(O)c(O)c(O)c1", "inhibition at 25 µM": "< 50%"}
{"Test Smiles": "O=C(Oc1ccc(/C=C/c2cccc(OC(=O)c3ccc(O)cc3)c2)cc1)c1ccc(O)cc1", "inhibition at 25 µM": "> 50%"}
{"Test Smiles": "COc1cc(C(=O)Oc2ccc(/C=C/c3ccccc3)cc2)cc(OC)c1OC", "inhibition at 25 µM": "< 50%"}

----------
tested on: NCI-H1703; assay: Antiproliferative activity against human NCI-H1703 cells expressing FASN assessed as reduction in cell viability after 72 hrs by MTS assay; type: functional, cell-based; details: NCI-H1703, 72 h
pIC50: −log10 of the molar value.

{"Molecule": "O=C(Oc1cccc2c1CCCC2OC(=O)c1cc(O)c(O)c(O)c1)c1cc(O)c(O)c(O)c1 (stereo not given)", "Target Or System": "NCI-H1703", "pIC50": 5.19}
{"Molecule": "O=C(Oc1ccc(/C=C/c2ccccc2)cc1)c1cc(O)c(O)c(O)c1", "Target Or System": "NCI-H1703", "pIC50": 4.95}
{"Molecule": "O=C(Oc1ccc(/C=C/c2cccc(OC(=O)c3ccc(O)c(O)c3)c2)cc1)c1ccc(O)c(O)c1", "Target Or System": "NCI-H1703", "pIC50": 5.05}
{"Molecule": "O=C(O[C@@H]1Cc2c(O)cc(O)cc2O[C@@H]1c1cc(O)c(O)c(O)c1)c1cc(O)c(O)c(O)c1 [EPIGALOCATECHIN GALLATE]", "Target Or System": "NCI-H1703", "pIC50": 4.77}
{"Molecule": "O=C(Oc1ccc(/C=C/c2cccc(OC(=O)c3ccc(O)cc3)c2)cc1)c1ccc(O)cc1", "Target Or System": "NCI-H1703", "pIC50": 4.76}
{"Molecule": "O=C(Oc1ccc(/C=C/c2ccc(OC(=O)c3cc(O)c(O)c(O)c3)cc2)cc1)c1cc(O)c(O)c(O)c1", "Target Or System": "NCI-H1703", "pIC50": 6.01}
{"Molecule": "O=C(Oc1ccc(/C=C/c2cccc(OC(=O)c3cc(O)c(O)c(O)c3)c2)cc1)c1cc(O)c(O)c(O)c1", "Target Or System": "NCI-H1703", "pIC50": 5.89}
{"Molecule": "O=C(Oc1ccccc1Cc1ccccc1OC(=O)c1cc(O)c(O)c(O)c1)c1cc(O)c(O)c(O)c1", "Target Or System": "NCI-H1703", "pIC50": 4.41}
{"Molecule": "O=C(Oc1ccc(-c2ccc(OC(=O)c3cc(O)c(O)c(O)c3)cc2)cc1)c1cc(O)c(O)c(O)c1", "Target Or System": "NCI-H1703", "pIC50": 5.24}
{"Molecule": "O=C(Oc1ccc(Cc2ccc(OC(=O)c3cc(O)c(O)c(O)c3)cc2)cc1)c1cc(O)c(O)c(O)c1", "Target Or System": "NCI-H1703", "pIC50": 5.21}
